READOUT_TYPE: melting point

COc1cccc(-n2cnc(NC(=O)N3CCC4(CC3)CN(S(C)(=O)=O)c3ccccc34)c2)c1 | 216 to 218 °C
CS(=O)(=O)N1CC2(CCN(C(=O)Nc3cnc(-c4ccccc4)cn3)CC2)c2cc(F)ccc21 | 215.5 to 215.8 °C
CS(=O)(=O)N1CC2(CCN(C(=O)Nc3ccc(-c4nccs4)cc3)CC2)c2ccccc21 | 143.2 to 147.4 °C
CS(=O)(=O)N1CC2(CCN(C(=O)Nc3cnc(-c4ccccc4Cl)cn3)CC2)c2ccccc21 | 197 to 199 °C

Give melting point for Cc1cccc2ccc(NC(=O)N3CCC4(CC3)CN(S(C)(=O)=O)c3ccccc34)nc12
219 to 220 °C

----------
READOUT_TYPE: melting point

Below, each entry is followed by its recorded melting point result.
CC(=O)c1ccc(NC(=O)N2CCC3(CC2)CN(S(N)(=O)=O)c2ccccc23)cc1 | 233 to 236 °C
CS(=O)(=O)N1CC2(CCN(C(=O)Nc3ccc(N4CCCC4)nc3)CC2)c2ccccc21 | 252 to 254 °C
CS(=O)(=O)N1CC2(CCN(C(=O)Nc3ccc(-c4ccncc4)cc3)CC2)c2ccccc21 | 272 to 274 °C

Give melting point for CCS(=O)(=O)N1CC2(CCN(C(=O)Nc3cnc(-c4nncs4)cn3)CC2)c2ccccc21
193 to 194 °C

Give melting point for CS(=O)(=O)N1CC2(CCN(C(=O)Nc3cnc(-c4nncs4)cn3)CC2)c2ccccc21
247 to 249 °C

Give melting point for Cc1ccc2nc(NC(=O)N3CCC4(CC3)CN(S(C)(=O)=O)c3ccccc34)cnc2c1
224 to 225 °C

Give melting point for CCc1nc(-c2ccc(NC(=O)N3CCC4(CC3)CN(S(C)(=O)=O)c3ccccc34)cc2)cs1
242 to 242.5 °C

Give melting point for CS(=O)(=O)N1CC2(CCN(C(=O)Nc3cn(-c4cccc(Cl)c4)cn3)CC2)c2ccccc21
232 to 234 °C

----------
Below is a list of entries, each paired with its recorded melting point value.

CS(=O)(=O)N1CC2(CCN(C(=O)Nc3cnc(-c4ccccc4)nc3)CC2)c2ccccc21 | 251 to 253 °C
COc1cccc2oc(NC(=O)N3CCC4(CC3)CN(S(C)(=O)=O)c3ccccc34)nc12 | 195 to 199 °C
CCS(=O)(=O)N1CC2(CCN(C(=O)Nc3cn(-c4ccccc4)cn3)CC2)c2ccccc21.Cl | 139 to 140 °C

Give melting point for CS(=O)(=O)N1CC2(CCN(C(=O)Nc3cnc(-c4nncs4)cn3)CC2)c2cc(F)ccc21
262 to 266 °C

----------
READOUT_TYPE: melting point

Below, each entry is followed by its recorded melting point result.
CS(=O)(=O)N1CC2(CCN(C(=O)Nc3cnc(-c4cccc(F)c4)cn3)CC2)c2ccccc21 | 203 to 205 °C
COc1ccccc1-c1cnc(NC(=O)N2CCC3(CC2)CN(S(C)(=O)=O)c2ccccc23)cn1 | 186 to 188 °C
CCS(=O)(=O)N1CC2(CCN(C(=O)Nc3cnc(-c4nncs4)cn3)CC2)c2ccc(F)cc21 | 228 to 230 °C
NS(=O)(=O)N1CC2(CCN(C(=O)Nc3cc(-c4ccccc4)no3)CC2)c2ccccc21 | 226 to 227 °C
CS(=O)(=O)N1CC2(CCN(C(=O)Nc3cnc(-c4nncs4)cn3)CC2)c2ccc(F)cc21 | 242 to 243 °C
C=CCc1cnc(NC(=O)N2CCC3(CC2)CN(S(C)(=O)=O)c2ccccc23)cn1 | 180.5 to 182.7 °C
CS(=O)(=O)N1CC2(CCN(C(=O)Nc3ccc(C(=O)c4ccccc4)cc3)CC2)c2ccccc21.Cl | 222 to 225 °C
CS(=O)(=O)N1CC2(CCN(C(=O)Nc3nc4cc(F)ccc4s3)CC2)c2ccccc21 | 243 to 244 °C
CS(=O)(=O)N1CC2(CCN(C(=O)Nc3nsc(-c4ccccc4)n3)CC2)c2ccccc21 | 133 to 136 °C
CCS(=O)(=O)N1CC2(CCN(C(=O)Nc3cn(-c4cccc(F)c4)cn3)CC2)c2ccccc21 | 200 to 202 °C

Give melting point for CS(=O)(=O)N1CC2(CCN(C(=O)Nc3cnc(-c4ncns4)cn3)CC2)c2cc(F)ccc21
239 to 240 °C

Give melting point for CS(=O)(=O)N1CC2(CCN(C(=O)Nc3cnc(-c4ncns4)cn3)CC2)c2ccc(F)cc21
237 to 239 °C

Give melting point for CCS(=O)(=O)N1CC2(CCN(C(=O)Nc3cnc(-c4ncns4)cn3)CC2)c2ccccc21
211 to 214 °C
